- Tested on: clinical isolates HPIV3-9R4 and HPIV3-10L3
- measurement-notes: microbe, parasite or virus in culture
- Assay type: cell-based
- experimental-setup: Human respirovirus 3, HPIV3-10L3 on HBTEC cultures
observed-property: EC50 (µM)
// note: answer is a bare numeric in µM

query: Using known records, supply EC50 for NC(=O)c1c(F)cccc1-c1cccc2cnccc12 [GHP-88309, 2-fluoro-6-(5-isoquinolyl)benzamide]
result: 0.08

----------
- measurement-notes: Pharmacokinetics analysis in mice
- Format: in vivo
- experimental-setup: female, 129x1/SvJ, mouse, plasma; 150 mg/kg oral b.i.d., 4-day treatment period; read-out: drug plasma concentration at trough
observed-property: concentration at 11.5 h

query: State, in one line, measured concentration at 11.5 h of NC(=O)c1c(F)cccc1-c1cccc2cnccc12 [GHP-88309, 2-fluoro-6-(5-isoquinolyl)benzamide]
result: ~34 µM

----------
- measurement-notes: in vitro
- experimental-setup: human
observed-property: CC50 (µM)
Your answer is read as µM, so omit the unit and give the number.

query: Tell me its CC50 given NC(=O)c1c(F)cccc1-c1cccc2cnccc12 [GHP-88309, 2-fluoro-6-(5-isoquinolyl)benzamide] as the entry.
result: 1000

----------
- target-or-test-system: NiV L (Nipah virus)
- measurement-notes: cell-based
observed-property: pEC50
When answering, recall that pEC50 equals minus log10 of the concentration in mol/L, and write that number alone.

query: Report measured pEC50 on NiV L (Nipah virus); entry: NC(=O)c1c(F)cccc1-c1cccc2cnccc12 [GHP-88309, 2-fluoro-6-(5-isoquinolyl)benzamide]
result: 3.50

----------
- target-or-test-system: purified MeV L (L1708) (Measles virus, UniProt Q9WMB3)
observed-property: pKd
Please treat pKd as minus the base-10 logarithm of the molar concentration.

query: For NC(=O)c1c(F)cccc1-c1cccc2cnccc12 [GHP-88309, 2-fluoro-6-(5-isoquinolyl)benzamide] , write its pKd.
result: 5.21

----------
- measurement-notes: in vitro
- Type: in vitro ADME
- experimental-setup: CD-1, mouse, plasma
observed-property: half-life

query: Return value of half-life for input NC(=O)c1c(F)cccc1-c1cccc2cnccc12 [GHP-88309, 2-fluoro-6-(5-isoquinolyl)benzamide] , no commentary.
result: > 15 h

----------
- measurement-notes: Pharmacokinetics analysis in mice
- Format: in vivo
- experimental-setup: female, 129x1/SvJ, mouse, plasma; single-dose oral vs i.v.
observed-property: bioavailability

query: Please report the measured bioavailability for NC(=O)c1c(F)cccc1-c1cccc2cnccc12 [GHP-88309, 2-fluoro-6-(5-isoquinolyl)benzamide]
result: ~90%

----------
- Tested on: HPIV3
- measurement-notes: microbe, parasite or virus in culture
- Format: cell-based
observed-property: EC50 (nM)
Expressed in nM, but write only the number.

query: State, in one line, measured EC50 of NC(=O)c1c(F)cccc1-c1cccc2cnccc12 [GHP-88309, 2-fluoro-6-(5-isoquinolyl)benzamide]
result: 105

----------
- measurement-notes: in vitro
- experimental-setup: African green monkey
observed-property: CC50

query: In one line, give reported CC50 of the entry NC(=O)c1c(F)cccc1-c1cccc2cnccc12 [GHP-88309, 2-fluoro-6-(5-isoquinolyl)benzamide] .
result: > 20 µM

----------
- measurement-notes: Stability in mouse liver microsomes
- Assay type: in vitro ADME
- experimental-setup: CD-1, mouse, pooled CD-1 mouse liver microsomes, pH 7.5, mouse liver microsomes; read-out: half-life (t1/2)
observed-property: half-life

query: Using known records, supply half-life for NC(=O)c1c(F)cccc1-c1cccc2cnccc12 [GHP-88309, 2-fluoro-6-(5-isoquinolyl)benzamide]
result: > 15 h
